test system: primary cortico-hippocampal neuron cultures; assay: lactate dehydrogenase (LDH) activity assay in parallel neuron cultures; settings: primary screening; table sorted by Aβ1-42
Counter-ions that a name gives are not always drawn.
Recorded LDH (% of ctl), one value per entry.
Recorded Metric: LDH (% of ctl)

INSERT INTO measurements (molecule, recorded_metric, value_measured) VALUES
  ('NS(=O)(=O)c1cc2c(cc1C(F)(F)F)NC(Cc1ccccc1)NS2(=O)=O (stereo not drawn) [Bendrofumethiazide]', 'LDH (% of ctl)', '104.7 % of ctl'),
  ('C[N+](C)(C)CCCCCC[N+](C)(C)C [Hexamethonium Bromide]', 'LDH (% of ctl)', '99.7 % of ctl'),
  ('CCCCCCCCNC(C)C(O)c1ccc(SC(C)C)cc1 (stereo not drawn)', 'LDH (% of ctl)', '396.1 % of ctl'),
  ('O=c1oc2c(O)c(O)cc3c(=O)oc4c(O)c(O)cc1c4c23', 'LDH (% of ctl)', '109.2 % of ctl'),
  ('COc1ccc(OC)c(C(O)CNC(=O)CN)c1 (stereo not drawn) [Midodrine Hydrochloride]', 'LDH (% of ctl)', '105.6 % of ctl'),
  ('CCOC(=O)[C@H](CCc1ccccc1)N[C@@H](C)C(=O)N1[C@H](C(=O)O)C[C@H]2CCCC[C@@H]21', 'LDH (% of ctl)', '95.5 % of ctl'),
  ('C1CCC(C(CC2CCCCN2)C2CCCCC2)CC1 (stereo not drawn) [Perhexiline Maleate]', 'LDH (% of ctl)', '1065.9 % of ctl'),
  ('C[N+]1(CCCCC[N+]2(C)CCCC2)CCCC1 [Pentolinium Tartrate]', 'LDH (% of ctl)', '118.0 % of ctl'),
  ('NS(=O)(=O)c1cc2c(cc1C(F)(F)F)NCNS2(=O)=O [Hydroflumethiazide]', 'LDH (% of ctl)', '99.7 % of ctl'),
  ('O=c1cc(-c2ccccc2)oc2cc(O)cc(O)c12', 'LDH (% of ctl)', '118.3 % of ctl'),
  ('COC(=O)[C@@H]1[C@H]2C[C@H]3c4[nH]c5ccccc5c4CCN3C[C@@H]2CC[C@@H]1O [Yohimbine Hydrochloride]', 'LDH (% of ctl)', '107.8 % of ctl'),
  ('C=CCc1ccccc1OCC(O)CNC(C)C (stereo not drawn)', 'LDH (% of ctl)', '128.0 % of ctl'),
  ('NCCCCCC(=O)O', 'LDH (% of ctl)', '90.4 % of ctl'),
  ('CC(=O)S[C@@H]1CC2=CC(=O)CC[C@]2(C)[C@H]2CC[C@@]3(C)[C@@H](CC[C@@]34CCC(=O)O4)[C@H]12', 'LDH (% of ctl)', '100.6 % of ctl'),
  ('CCOC(=O)[C@H](CCc1ccccc1)N[C@@H](C)C(=O)N1Cc2ccccc2C[C@H]1C(=O)O [Quinapril Hydrochloride]', 'LDH (% of ctl)', '101.8 % of ctl'),
  ('CC(=O)Nc1nnc(S(N)(=O)=O)s1 [Acetazolamide]', 'LDH (% of ctl)', '173.5 % of ctl'),
  ('COc1cc2ccc(=O)oc2cc1O', 'LDH (% of ctl)', '106.2 % of ctl'),
  ('COc1ccccc1OCCNCC(O)COc1cccc2[nH]c3ccccc3c12 (stereo not drawn)', 'LDH (% of ctl)', '148.6 % of ctl');
